# System: HT29 colon
# assayMethodText: NCI-60 one-dose screen, 48 h
# statedConditions: 10 µM unless noted
Compounds without any hit were thinned out: in the full panel of roughly 83,000, 20% have a hit. Calls of active or inactive are those of the source. Rule for the calls: active = growth percent below 10; inactive = the rest.
The reply should name one outcome from active, inactive

Example entries begin here.
compound	system	classification
Cc1cc(C(=O)/C=C/c2ccc[nH]2)ccc1-n1ccc(C(F)(F)F)n1	HT29 colon	inactive
O=C(CNCCN1CCOCC1)N1c2cccc3cccc(c23)N(C(=O)CNCCN2CCOCC2)C1c1cn(-c2ccccc2)nc1-c1cccc([N+](=O)[O-])c1	HT29 colon	active
COc1ccc(-c2nc([C@@H](C)Sc3nc(N)cc(N)n3)c(C)s2)cc1OCCN1CCOCC1	HT29 colon	inactive

Outcome? CCOC(=O)c1nc2c3ccccc3ccn2c1C(=O)OCC
inactive

Next up: CNCCOc1nc2c3cnccc3cc(-c3cc(OC)c(OC)c(OC)c3)c2c2ccncc12
active

Next up: CC(=O)[C@@H]1CC[C@]2(CO)CC[C@]3(C)[C@H](CC[C@@H]4[C@@]5(C)CCCNC(C)(C)[C@@H]5CC[C@]43C)[C@@H]12
inactive

Next up: COc1ccc2[nH]c(O)c(/C=c3/cc4c(c(-c5ccc(F)cc5)n3)=Nc3ccccc3-4)c2c1
active

Next up: COC(=O)C1=C(C(=O)ON)[C@@H]2C=C[C@@]1([C@@H](Cc1ccccc1)Nc1ccccc1)O2
inactive

Next up: c1ccc2c(-c3c[nH]c4ccccc34)c3c(cc2c1)[nH]c1ccccc13
inactive

Next up: C=CC(=O)N[C@@H](/C=C/C(=O)OCC)Cc1ccc(-c2cc(Cl)cc(Cl)c2)cc1
inactive

Next up: O=C(NCCNc1nccc(-c2c(-c3cccc(F)c3)nc3sccn23)n1)c1ccc(Cl)cc1
inactive

Next up: COc1ccc2[nH]c(=O)c(CN3CCN(c4nccc(-c5ccc(Cl)cc5)n4)CC3)cc2c1
inactive

Next up: COc1cc2c(cc1OC)C(=O)/C(=C/c1cc(C)c(O)c(C)c1)S2
inactive

Next up: COc1cc(/C(C)=C(\c2ccc(Cl)cc2)c2ccc(OCCN(C)C)cc2)ccc1F
active

Next up: COc1cc(-c2n/c(=C\c3c(O)[nH]c4ccc(Cl)cc34)cc3c2=Nc2ccccc2-3)ccc1F
active

Next up: Cc1ccc(NS(=O)(=O)c2ccc(-c3cnc(C4CC4)o3)cc2)cc1C(F)(F)F
inactive

Next up: O=C(O)c1ccc(-c2nn(-c3ccc(C(F)(F)F)cc3)cc2CNc2ccc(Oc3ccccc3)cc2)cc1
inactive

Next up: Cc1cc2c(C(=O)NCC#N)cccc2n1-c1nc2c(c(NCc3ccccc3)n1)CCCC2
active

Next up: CN(CCN(C)c1ccc(C(=N)N)cc1)c1ccc(C(=N)N)cc1
inactive

Next up: COc1ccc(-c2nc(S(=O)(=O)c3ccccc3)c(S(=O)CC(=O)N3CCC(C)CC3)o2)cc1 (stereo unspecified)
inactive

Next up: C[C@H]1[C@H](C)CC[C@]2(C(=O)Nc3ccc4ncccc4c3)CC[C@]3(C)C(=CC[C@@H]4[C@@]5(C)CCCNC(C)(C)[C@@H]5CC[C@]43C)[C@H]12
active

Next up: Cc1ccc(NC(C(=O)c2ccccc2)c2ccccc2)cc1 (stereo unspecified)
inactive

Next up: Nc1c(C(=O)Nc2cccc3cnccc23)sc2nc3c(cc12)CN(Cc1ccccc1)CC3
inactive

Next up: N#C/C(=C\c1ccc(Cl)cc1)n1nnc2cc(F)c(F)cc21
active

Next up: CCOC(=O)/C(C#N)=C1/NNC(=Nc2cccnc2)S1
inactive

Next up: OCc1cnccc1NCCCCOc1ccc(Oc2ccccc2)cc1
inactive

Next up: COc1ccc(/C=C2\COc3ccc(-c4ccccc4)cc3C2=O)c(OC)c1
inactive
